- Test system: Escherichia coli
- experiment-description: Antimicrobial activity against Escherichia coli T-622 harboring expressing qnrB2 and beta-lactamase KPC-2 and SHV-12 gene by Etest
- Format: functional
measured-metric: MIC

Illustrative cases are given below, each with its answer.
CCN1CCN(C(=O)N[C@@H](C(=O)N[C@@H]2C(=O)N3[C@@H]2SC(C)(C)[C@@H]3C(=O)O)c2ccccc2)C(=O)C1=O [PIPERACILLIN]	≥ 128 µg/mL
NCC[C@H](O)C(=O)N[C@@H]1C[C@H](N)[C@@H](O[C@H]2O[C@H](CN)[C@@H](O)[C@H](O)[C@H]2O)[C@H](O)[C@H]1O[C@H]1O[C@H](CO)[C@@H](O)[C@H](N)[C@H]1O [AMIKACIN]	≤ 2 µg/mL

Would you kindly look at the next entry?
I'm curious: which MIC was measured for C[C@H]1[C@H](NC(=O)/C(=N\OC(C)(C)C(=O)O)c2csc(N)n2)C(=O)N1S(=O)(=O)O [AZTREONAM] tested on Escherichia coli?
≥ 64 µg/mL

Data credit: ChEMBL document CHEMBL1275468
